# Tested on: Chordin-like protein 2 (CHRDL2)
# assayName: CHRDL2 small-molecule binders, primary screen, biochemical, small-molecule microarray, 635 nm fluorescence (AID 1126);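 also: printed compound slides probed with Chrdl2 protein at 4 µg/mL for 1 h at 4 C; score merges 667 nm emission intensity with signal to noise over three replicate slides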
# statedConditions: small-molecule microarray binding, fluorescence 635 nm; higher = more signal
Label satisfied for high-side composite z-score (at or above -0.1) and not satisfied for low-side composite z-score (below it).

{"columns": ["compound", "labelClass"],
 "data": [
  ["C#CCCCON=C1C[C@@H](O)[C@@H](O)[C@@H]2[C@@H]3C(=O)N([C@@H](C)c4ccccc4)C(=O)[C@@H]3CC[C@@H]12", "not satisfied"],
  ["COC(=O)CC=C[C@@H](C)[C@@H](C=NOC[C@@H](C)[C@H](OCc1ccccc1)C(C)C)OC", "satisfied"],
  ["CCOC(=O)[C@H](CC(C)C)NC(=O)CCC1CC(OC(=O)NCc2ccc3c(c2)OCO3)CC2(CCCC(COC(=O)NCCOc3ccccc3)O2)O1 (some centres not stated)", "satisfied"]
]}

[Q] Item COC(=O)[C@@H]1CC[C@H](C)[C@@H](c2ccc(Br)cc2)N1C(=O)C(F)(F)F with composite z-score of -0.1 or above?
[A] not satisfied

[Q] Record O=C1[C@H]2[C@H]3[C@H](O)[C@H](O)CC(=NO[C@@H]4O[C@H](CO)[C@@H](O)[C@H](O)[C@H]4O)[C@@H]3CC[C@H]2C(=O)N1C[C@@H]1CCCO1 ; criterion: composite z-score no lower than -0.1. Met?
[A] satisfied

[Q] Could you please find out whether COc1ccc(COC(=O)NN=C2C[C@@H](O)[C@@H](O)[C@@H]3[C@@H]4C(=O)N([C@@H](C)c5ccccc5)C(=O)[C@@H]4CC[C@H]23)cc1 has composite z-score that meets -0.1 or exceeds it?
[A] not satisfied

[Q] Does composite z-score meet or surpass -0.1 for COc1ccc(COC(=O)NN=C2C[C@@H](O)[C@@H](O)[C@@H]3[C@@H]4C(=O)N(Cc5ccc6c(c5)OCO6)C(=O)[C@@H]4CC[C@H]23)cc1 ?
[A] not satisfied

* * *

# assayName: small-molecule microarray binders of probe aShh, primary screen, biochemical, biotinylated probe, 635/667 nm fluorescence (AID 1114);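 also: probe is biotin-labelled aShh protein from a stem cell growth factor screen; measures binding of labelled protein to compounds printed on the slide; score merges feature fluorescence at 667 nm with signal-to-noise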
# statedConditions: higher = more signal
Let's look at some molecules and their measured composite z-score.

Note to self: composite z-score recorded for COC(=O)[C@H](C)NC(=O)CCC1CC(OC(=O)NCCc2ccc(F)cc2)CC2(CCCC(COC(=O)NCCc3ccccc3OC)O2)O1 (some centres not stated) was 0.0141

Briefly, composite z-score measured for CC(=O)OC[C@H]1O[C@H](C#CCC2CCCCC2)C=C[C@@H]1OC(C)=O : 0.194

Short answer for CCOC(=O)CCN1C(=O)[C@H]2[C@H]3[C@H](O)[C@H](O)CC(=NNC(=O)OCc4ccccc4)[C@H]3CC[C@H]2C1=O : composite z-score was -0.138

Noted for CCOC(=O)[C@H](CC(C)C)NC(=O)CCC1CC(OC(=O)NCc2ccc3c(c2)OCO3)CC2(CCCC(COC(=O)NCCc3ccc(Cl)cc3)O2)O1 (some centres not stated) : its composite z-score reads -0.283

Documented composite z-score of CCOC(=O)[C@H](Cc1ccccc1)NC(=O)CCC1CC(OC(=O)NCc2ccc3c(c2)OCO3)CC2(CCCC(COC(=O)NCCc3ccc(Cl)cc3)O2)O1 (some centres not stated) : 0.0756

composite z-score for CON=C1c2cc(OC)ccc2O[C@H](c2cccc(OC)c2)[C@H]1O is 0.172

composite z-score for CO[C@@H]1C=CCC(=O)N[C@@H](C)C(=O)OC[C@@H](NS(=O)(=O)c2ccc(C)cc2)[C@H](C)C=CCC(=O)OC[C@H]1C is 0.0442
